System: MAP3K15;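 further: KINOMEscan kinase panel screen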
Details: concentration: 1 μM, replicates: in singlicate; n = 1
Here the recorded %Inh is given for each entry.
Give just the numeric value; % need not be written.

Check out these entries, answers already filled in.
Any idea what its %Inh is? The compound is CN(c1ccc(NC(=O)N2CCN(CCCN3CCOCC3)CC2)cc1)c1ccnc(Nc2ccc(CS(C)(=O)=O)cc2)n1.Cl [GW830899] 0

Moving on to Nc1ncc(-c2cn[nH]c2)c2scc(-c3ccc4c(c3)CCN4C(=O)Cc3ccccc3)c12 [GSK2593067] 22

Moving on to COc1cc(Nc2nccc(N3CCC(NC(=O)Nc4ccc5c(c4)OCO5)C3)n2)cc(OC)c1OC (stereo not drawn) [GSK1379766] 0

Moving on to NCCC(NC(=O)c1cc(Br)c(-c2ccnc3[nH]ccc23)s1)c1ccccc1.O=C(O)C(F)(F)F.O=C(O)C(F)(F)F (stereo not drawn) [GSK1307810] 65

Moving on to CCn1cnc2c(NCc3ccccc3)ncnc21 [SKF-96418] 22

Moving on to COc1cccc2c(-c3ccncc3)c(-c3ccc(F)cc3)nn12 [GW468513] 0

Moving on to Cc1cccc(Nc2nc(N[C@H]3CCCC[C@H]3N)ncc2C(N)=O)c1.Cl [GSK986310] 16

Moving on to COc1ccc(C)c(Nc2ccnc(Nc3ccc(-c4cnc[nH]4)cc3)n2)c1.Cl [GW784041] 0

More entries:
Any idea what its %Inh is? The compound is c1ccc(Oc2ccc(Nc3ccnc4cc(-c5ccc(CN6CCCCC6)o5)ccc34)cc2)nc1 [GW567143] 18

Moving on to Cc1cccc(Nc2nc(NCCN)ncc2C(N)=O)c1 [GSK1292139] 0

Moving on to COC(=O)Nc1nc2ccc(Oc3ccc(NC(=O)Nc4cc(C(F)(F)F)ccc4F)cc3)cc2[nH]1.Cl [GW654607] 0

Moving on to CN(c1ccc2c(c1)nc(NCc1ccccc1)n2C)c1ccnc(Nc2ccc(CS(C)(=O)=O)cc2)n1.Cl [GW811603] 13

Moving on to CCNc1nccc(-c2c(-c3ccc(F)cc3)ncn2C2CCN(C)CC2)n1 0

Moving on to O=C(Nc1n[nH]c2nc(-c3ccccc3O)ccc12)C1CC1 [SB-711880] 0

Moving on to CCn1c(-c2nonc2N)nc2c(-c3ccccc3)ncc(OCCCN)c21.O=C(O)C(F)(F)F.O=C(O)C(F)(F)F [GSK260205] 0
